src = ChEMBL document CHEMBL1137511

experiment: Inhibition of HCV genotype 1 polymerase; parameters: species or system Hepacivirus hominis
pIC50: −log10 of the molar value.
QUANTITY MEASURED: pIC50

[[record]]
structure_smiles = "CC(C)CCn1c(=O)c(C2=NS(=O)(=O)c3cc(NS(=O)(=O)NC(=O)OCC(=O)O)ccc3N2)c(O)c2cccnc21"
numeric_readout = 7.30

[[record]]
structure_smiles = "CC(C)CCn1c(=O)c(C2=NS(=O)(=O)c3cc(NS(=O)(=O)N4CCCC4)ccc3N2)c(O)c2cccnc21"
numeric_readout = 7.57

[[record]]
structure_smiles = "CC(C)CCn1c(=O)c(C2=NS(=O)(=O)c3cc(NS(=O)(=O)NC4CCNCC4)ccc3N2)c(O)c2cccnc21"
numeric_readout = 7.49

[[record]]
structure_smiles = "CCOC(=O)COC(=O)NS(=O)(=O)Nc1ccc2c(c1)S(=O)(=O)NC(c1c(O)c3cccnc3n(CCC(C)C)c1=O)=N2"
numeric_readout = 7.21


A = CC(C)CCn1c(=O)c(C2=NS(=O)(=O)c3cc(NS(=O)(=O)N(C)C(=O)OCc4ccccc4)ccc3N2)c(O)c2cccnc21
B = CC(C)CCn1c(=O)c(C2=NS(=O)(=O)c3cc(NS(=O)(=O)NCCN)ccc3N2)c(O)c2cccnc21
Between item A and item B , which reported pIC50 is smaller? In your reply, give the label of the chosen option.
A
